# Tested on: 817829-284-R-J1-PDC complex spheroids, viability
# Run description: Anticancer human tumor 817829-284-R-J1-PDC patient-derived colon adenocarcinoma cell line growth inhibition [GQUAD]
# Test parameters: curve of first compound; second compound 10 µM
Observation type: pIC50
Just the number, please; pIC50 means minus log10 of the concentration in mol/L.

In the examples that follow, each entry is paired with its recorded pIC50.
1) COc1cccc2c1C(=O)c1c(O)c3c(c(O)c1C2=O)CC(O)(C(=O)CO)CC3OC1CC(N)C(O)C(C)O1 (stereo unspecified) + CN(C)c1ccc(Nc2c3ccc(NC(=O)CCN4CCCC4)cc3nc3cc(NC(=O)CCN4CCCC4)ccc23)cc1 = 7.02
2) CCCS(=O)(=O)Nc1ccc(F)c(C(=O)c2c[nH]c3ncc(-c4ccc(Cl)cc4)cc23)c1F + CN(C)c1ccc(Nc2c3ccc(NC(=O)CCN4CCCC4)cc3nc3cc(NC(=O)CCN4CCCC4)ccc23)cc1 = 5.83

The molecule C=CCn1c(=O)c2cnc(Nc3ccc(N4CCN(C)CC4)cc3)nc2n1-c1cccc(C(C)(C)O)n1 + CN(C)c1ccc(Nc2c3ccc(NC(=O)CCN4CCCC4)cc3nc3cc(NC(=O)CCN4CCCC4)ccc23)cc1 showed pIC50 equal to 6.72

The molecule O=c1[nH]cc(F)c(=O)[nH]1 + Cc1[nH]c2ccc(F)cc2c1-c1nc2c3cccnc3c3ncccc3c2[nH]1 showed pIC50 equal to 6.63

The molecule COc1ncnc(C2CC2)c1-c1ncc2cnn(Cc3ccc(-c4nc(C(F)(F)F)cn4C(C)C)cc3)c2n1 + Cc1[nH]c2ccc(F)cc2c1-c1nc2c3cccnc3c3ncccc3c2[nH]1 showed pIC50 equal to 7.49

The molecule COc1cc(C2c3cc4c(cc3C(OC3OC5COC(C)OC5C(O)C3O)C3COC(=O)C23)OCO4)cc(OC)c1O (stereo unspecified) + CN(C)c1ccc(Nc2c3ccc(NC(=O)CCN4CCCC4)cc3nc3cc(NC(=O)CCN4CCCC4)ccc23)cc1 showed pIC50 equal to 6.53

The molecule O=c1[nH]cc(F)c(=O)[nH]1 + CN(C)c1ccc(Nc2c3ccc(NC(=O)CCN4CCCC4)cc3nc3cc(NC(=O)CCN4CCCC4)ccc23)cc1 showed pIC50 equal to 5.57

The molecule COc1ccc([C@@H](O)c2cc(-c3ncnc4cc(N5CCOCC5)ccc34)c(F)cc2Cl)nn1 + Cc1[nH]c2ccc(F)cc2c1-c1nc2c3cccnc3c3ncccc3c2[nH]1 showed pIC50 equal to 6.47

The molecule CCCS(=O)(=O)Nc1ccc(F)c(C(=O)c2c[nH]c3ncc(-c4ccc(Cl)cc4)cc23)c1F + Cc1[nH]c2ccc(F)cc2c1-c1nc2c3cccnc3c3ncccc3c2[nH]1 showed pIC50 equal to 7.26

---

# Test system: 817829-284-R-J1-PDC complex spheroids, viability
# Run description: Anticancer human tumor 817829-284-R-J1-PDC cell line growth inhibition [GQUAD];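 also: spheroids exposed to agents for 7 days before readout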;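 as to viability, T/C: percent viability relative to DMSO vehicle control taken as 100%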
# Test parameters: second compound 0.1 µM; first compound 3.16 µM; stronger effect = lower value
# Description: DNA G-quadruplex Stabilizer Agents in Combinations in Complex Spheroids A high-throughput screen of multi-cell type tumor spheroids was designed to identify active combinations of DNA G-quadruplex stabilizer agents and targeted small molecules. […] Compounds. […] If the clinical Cmax for an agent had not been determined, the highest concentration tested was 10 microM. […]
Consider the cut-off 7%. If the recorded viability, T/C is strictly smaller, the label is satisfied; if not, the label is not satisfied.

1) O=C(NO)c1cnc(N2CCN(S(=O)(=O)c3ccc4ccccc4c3)CC2)nc1 + CN(C)c1ccc(Nc2c3ccc(NC(=O)CCN4CCCC4)cc3nc3cc(NC(=O)CCN4CCCC4)ccc23)cc1 = satisfied
2) C=CCn1c(=O)c2cnc(Nc3ccc(N4CCN(C)CC4)cc3)nc2n1-c1cccc(C(C)(C)O)n1 + Cc1cnc(CNC(=O)c2c(=O)c3ccc(N4CCCN(C)CC4)nc3n3c2sc2ccccc23)cn1 = not satisfied
3) COc1ccc([C@@H](O)c2cc(-c3ncnc4cc(N5CCOCC5)ccc34)c(F)cc2Cl)nn1 + CN(C)c1ccc(Nc2c3ccc(NC(=O)CCN4CCCC4)cc3nc3cc(NC(=O)CCN4CCCC4)ccc23)cc1 = not satisfied
4) Cc1cccc(N(C)C(=O)C2C(O)CCN2c2nc(C)cc(C(F)(F)F)c2C#N)c1 (stereo not given) + Cc1[nH]c2ccc(F)cc2c1-c1nc2c3cccnc3c3ncccc3c2[nH]1 = not satisfied

Continue with the compound presented below.
Query: Confirm or reject: viability, T/C of O=C(NO)c1cnc(N2CCN(S(=O)(=O)c3ccc4ccccc4c3)CC2)nc1 + Cc1[nH]c2ccc(F)cc2c1-c1nc2c3cccnc3c3ncccc3c2[nH]1 lies strictly below 7%
Response: satisfied
